- Test System: EGFR L858R (Homo sapiens, UniProt P00533, L858R)
- Sequence (P00533 25-1210 L858R): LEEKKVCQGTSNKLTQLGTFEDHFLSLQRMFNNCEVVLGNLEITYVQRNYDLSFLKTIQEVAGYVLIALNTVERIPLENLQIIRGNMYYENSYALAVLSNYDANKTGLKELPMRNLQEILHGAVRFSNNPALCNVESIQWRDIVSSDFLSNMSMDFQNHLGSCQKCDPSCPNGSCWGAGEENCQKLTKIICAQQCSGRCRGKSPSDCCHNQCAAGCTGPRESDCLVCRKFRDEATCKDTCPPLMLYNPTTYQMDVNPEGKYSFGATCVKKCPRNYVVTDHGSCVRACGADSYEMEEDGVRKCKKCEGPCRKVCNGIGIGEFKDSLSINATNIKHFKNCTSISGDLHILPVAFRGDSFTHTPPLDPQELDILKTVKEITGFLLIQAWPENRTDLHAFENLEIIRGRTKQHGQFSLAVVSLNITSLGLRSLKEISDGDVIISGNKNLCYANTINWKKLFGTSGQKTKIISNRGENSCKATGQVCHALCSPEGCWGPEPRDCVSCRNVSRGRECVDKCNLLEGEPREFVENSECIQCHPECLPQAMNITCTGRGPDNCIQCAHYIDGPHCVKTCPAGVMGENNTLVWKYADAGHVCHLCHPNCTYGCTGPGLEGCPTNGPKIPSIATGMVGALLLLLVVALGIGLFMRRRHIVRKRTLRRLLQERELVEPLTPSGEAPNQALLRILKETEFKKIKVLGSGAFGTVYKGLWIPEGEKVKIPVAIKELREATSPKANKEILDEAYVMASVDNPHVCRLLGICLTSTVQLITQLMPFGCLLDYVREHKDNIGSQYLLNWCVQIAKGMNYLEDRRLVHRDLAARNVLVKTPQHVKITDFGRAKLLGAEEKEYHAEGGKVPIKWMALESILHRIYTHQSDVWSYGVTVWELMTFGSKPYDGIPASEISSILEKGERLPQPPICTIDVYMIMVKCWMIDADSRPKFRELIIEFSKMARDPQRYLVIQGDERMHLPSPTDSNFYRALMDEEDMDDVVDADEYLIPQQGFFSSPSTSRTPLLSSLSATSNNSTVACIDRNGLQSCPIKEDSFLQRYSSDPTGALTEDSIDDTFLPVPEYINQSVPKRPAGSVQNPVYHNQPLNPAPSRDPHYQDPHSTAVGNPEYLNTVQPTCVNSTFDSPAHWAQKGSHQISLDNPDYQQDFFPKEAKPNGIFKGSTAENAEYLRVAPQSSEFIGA
- Protocol Description: EGFR biochemical assay (headed HTRF-based; method describes Z'-LYTE), L858R
- Reported Conditions: Table 4
Measured Quantity: IC50

IC50 reading for C=CC(=O)N1CC[C@H](N2Cc3cnc(Nc4cnn(CCO)c4)nc3N(C)C2=O)[C@@H]2CCC[C@@H]21 : > 100 nM

IC50 reading for C=CC(=O)N1CCC2(N3Cc4cnc(Nc5ccc(OCCN6CCCC6)cc5)nc4N(C)C3=O)CC2C1 (stereo not shown) : > 100 nM

IC50 reading for C=CC(=O)N1C[C@@H](N2Cc3cnc(Nc4ccc(N5CCN(C)CC5)cc4)nc3N(C)C2=O)C[C@@H]1C(=O)O : > 1000 nM

IC50 reading for C=CC(=O)N1CC[C@H](N2Cc3cnc(Nc4ccc(N5CCN(C)CC5)cc4)nc3N(C)C2=O)C[C@@H]1CO : > 1000 nM
